- study_target: KRAS G12D (Homo sapiens (Human), UniProt P01116, G12D)
- Sequence (P01116 other isoform, or with tags, fused parts or gaps G12D): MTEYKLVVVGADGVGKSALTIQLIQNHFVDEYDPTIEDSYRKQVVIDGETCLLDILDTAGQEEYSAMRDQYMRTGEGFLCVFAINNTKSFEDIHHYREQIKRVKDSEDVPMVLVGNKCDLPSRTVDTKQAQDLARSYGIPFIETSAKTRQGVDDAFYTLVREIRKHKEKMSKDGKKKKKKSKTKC
- procedure_text: SPR binding affinity and kinetics, GTPγS-loaded KRAS G12D
- experimental_context: GTPγS loaded protein, geomean
quantity_measured: Kd (nM)

query_smiles: C[C@@H]1CCCc2cc3[nH]ncc3c(-c3nc4c5c(nc(OC[C@@]67CCCN6C/C(=C/F)C7)nc5c3F)N3CCCOC[C@H]3CO4)c21
study_target: KRAS G12D (Homo sapiens (Human), UniProt P01116, G12D)
Kd [nM]: 2

I = C=C1CN2CCC[C@@]2(COc2nc3c4c(nc(-c5c(C)c(Cl)cc6[nH]ncc56)c(F)c4n2)OC[C@@H]2COCCCN32)C1
II = C=C1CN2CCC[C@@]2(COc2nc3c4c(nc(-c5c6c(cc7[nH]ncc57)CCC[C@@H]6C)c(F)c4n2)OC[C@@H]2COCCCN32)C1
Lower value for measured Kd? Options: I , II Mark your answer with the label of the selected entry.
II
(II: 19 nM, I: 28 nM)
